# assay target: UniProtKB Q9Y6R4
# experiment summary: biochemical
# Design: species or system HEK293/K-562/placenta mixed human extract; Kinobeads chemoproteomic competition binding, quantified by TMT LC-MS/MS, dose response up to 20 uM
experimental readout: IC50

query: Provide one value: measured IC50 of COc1ccccc1-c1n[nH]c2nc(N[C@H]3CC[C@H](NS(=O)(=O)CCC(F)(F)F)CC3)nc(OC)c12 [compound 31]
result: ≥ 20 µM

----------
# assay target: GSK3B (Homo sapiens)
# experiment summary: biochemical
# Parameters: species or system HEK293/K-562/placenta mixed human extract; Kinobeads chemoproteomic competition binding, quantified by TMT LC-MS/MS, dose response up to 20 uM
pIC50: −log10 of the molar value.
experimental readout: pIC50

query: Name the recorded pIC50 of the item COc1nc(N[C@H]2CC[C@H](NS(=O)(=O)CC(C)C)CC2)nc2[nH]nc(N3CCOC[C@H]3C)c12 in your answer.
result: ≤ 4.70

----------
# assay target: UniProt P78527
# Sequence (P78527 whole entry): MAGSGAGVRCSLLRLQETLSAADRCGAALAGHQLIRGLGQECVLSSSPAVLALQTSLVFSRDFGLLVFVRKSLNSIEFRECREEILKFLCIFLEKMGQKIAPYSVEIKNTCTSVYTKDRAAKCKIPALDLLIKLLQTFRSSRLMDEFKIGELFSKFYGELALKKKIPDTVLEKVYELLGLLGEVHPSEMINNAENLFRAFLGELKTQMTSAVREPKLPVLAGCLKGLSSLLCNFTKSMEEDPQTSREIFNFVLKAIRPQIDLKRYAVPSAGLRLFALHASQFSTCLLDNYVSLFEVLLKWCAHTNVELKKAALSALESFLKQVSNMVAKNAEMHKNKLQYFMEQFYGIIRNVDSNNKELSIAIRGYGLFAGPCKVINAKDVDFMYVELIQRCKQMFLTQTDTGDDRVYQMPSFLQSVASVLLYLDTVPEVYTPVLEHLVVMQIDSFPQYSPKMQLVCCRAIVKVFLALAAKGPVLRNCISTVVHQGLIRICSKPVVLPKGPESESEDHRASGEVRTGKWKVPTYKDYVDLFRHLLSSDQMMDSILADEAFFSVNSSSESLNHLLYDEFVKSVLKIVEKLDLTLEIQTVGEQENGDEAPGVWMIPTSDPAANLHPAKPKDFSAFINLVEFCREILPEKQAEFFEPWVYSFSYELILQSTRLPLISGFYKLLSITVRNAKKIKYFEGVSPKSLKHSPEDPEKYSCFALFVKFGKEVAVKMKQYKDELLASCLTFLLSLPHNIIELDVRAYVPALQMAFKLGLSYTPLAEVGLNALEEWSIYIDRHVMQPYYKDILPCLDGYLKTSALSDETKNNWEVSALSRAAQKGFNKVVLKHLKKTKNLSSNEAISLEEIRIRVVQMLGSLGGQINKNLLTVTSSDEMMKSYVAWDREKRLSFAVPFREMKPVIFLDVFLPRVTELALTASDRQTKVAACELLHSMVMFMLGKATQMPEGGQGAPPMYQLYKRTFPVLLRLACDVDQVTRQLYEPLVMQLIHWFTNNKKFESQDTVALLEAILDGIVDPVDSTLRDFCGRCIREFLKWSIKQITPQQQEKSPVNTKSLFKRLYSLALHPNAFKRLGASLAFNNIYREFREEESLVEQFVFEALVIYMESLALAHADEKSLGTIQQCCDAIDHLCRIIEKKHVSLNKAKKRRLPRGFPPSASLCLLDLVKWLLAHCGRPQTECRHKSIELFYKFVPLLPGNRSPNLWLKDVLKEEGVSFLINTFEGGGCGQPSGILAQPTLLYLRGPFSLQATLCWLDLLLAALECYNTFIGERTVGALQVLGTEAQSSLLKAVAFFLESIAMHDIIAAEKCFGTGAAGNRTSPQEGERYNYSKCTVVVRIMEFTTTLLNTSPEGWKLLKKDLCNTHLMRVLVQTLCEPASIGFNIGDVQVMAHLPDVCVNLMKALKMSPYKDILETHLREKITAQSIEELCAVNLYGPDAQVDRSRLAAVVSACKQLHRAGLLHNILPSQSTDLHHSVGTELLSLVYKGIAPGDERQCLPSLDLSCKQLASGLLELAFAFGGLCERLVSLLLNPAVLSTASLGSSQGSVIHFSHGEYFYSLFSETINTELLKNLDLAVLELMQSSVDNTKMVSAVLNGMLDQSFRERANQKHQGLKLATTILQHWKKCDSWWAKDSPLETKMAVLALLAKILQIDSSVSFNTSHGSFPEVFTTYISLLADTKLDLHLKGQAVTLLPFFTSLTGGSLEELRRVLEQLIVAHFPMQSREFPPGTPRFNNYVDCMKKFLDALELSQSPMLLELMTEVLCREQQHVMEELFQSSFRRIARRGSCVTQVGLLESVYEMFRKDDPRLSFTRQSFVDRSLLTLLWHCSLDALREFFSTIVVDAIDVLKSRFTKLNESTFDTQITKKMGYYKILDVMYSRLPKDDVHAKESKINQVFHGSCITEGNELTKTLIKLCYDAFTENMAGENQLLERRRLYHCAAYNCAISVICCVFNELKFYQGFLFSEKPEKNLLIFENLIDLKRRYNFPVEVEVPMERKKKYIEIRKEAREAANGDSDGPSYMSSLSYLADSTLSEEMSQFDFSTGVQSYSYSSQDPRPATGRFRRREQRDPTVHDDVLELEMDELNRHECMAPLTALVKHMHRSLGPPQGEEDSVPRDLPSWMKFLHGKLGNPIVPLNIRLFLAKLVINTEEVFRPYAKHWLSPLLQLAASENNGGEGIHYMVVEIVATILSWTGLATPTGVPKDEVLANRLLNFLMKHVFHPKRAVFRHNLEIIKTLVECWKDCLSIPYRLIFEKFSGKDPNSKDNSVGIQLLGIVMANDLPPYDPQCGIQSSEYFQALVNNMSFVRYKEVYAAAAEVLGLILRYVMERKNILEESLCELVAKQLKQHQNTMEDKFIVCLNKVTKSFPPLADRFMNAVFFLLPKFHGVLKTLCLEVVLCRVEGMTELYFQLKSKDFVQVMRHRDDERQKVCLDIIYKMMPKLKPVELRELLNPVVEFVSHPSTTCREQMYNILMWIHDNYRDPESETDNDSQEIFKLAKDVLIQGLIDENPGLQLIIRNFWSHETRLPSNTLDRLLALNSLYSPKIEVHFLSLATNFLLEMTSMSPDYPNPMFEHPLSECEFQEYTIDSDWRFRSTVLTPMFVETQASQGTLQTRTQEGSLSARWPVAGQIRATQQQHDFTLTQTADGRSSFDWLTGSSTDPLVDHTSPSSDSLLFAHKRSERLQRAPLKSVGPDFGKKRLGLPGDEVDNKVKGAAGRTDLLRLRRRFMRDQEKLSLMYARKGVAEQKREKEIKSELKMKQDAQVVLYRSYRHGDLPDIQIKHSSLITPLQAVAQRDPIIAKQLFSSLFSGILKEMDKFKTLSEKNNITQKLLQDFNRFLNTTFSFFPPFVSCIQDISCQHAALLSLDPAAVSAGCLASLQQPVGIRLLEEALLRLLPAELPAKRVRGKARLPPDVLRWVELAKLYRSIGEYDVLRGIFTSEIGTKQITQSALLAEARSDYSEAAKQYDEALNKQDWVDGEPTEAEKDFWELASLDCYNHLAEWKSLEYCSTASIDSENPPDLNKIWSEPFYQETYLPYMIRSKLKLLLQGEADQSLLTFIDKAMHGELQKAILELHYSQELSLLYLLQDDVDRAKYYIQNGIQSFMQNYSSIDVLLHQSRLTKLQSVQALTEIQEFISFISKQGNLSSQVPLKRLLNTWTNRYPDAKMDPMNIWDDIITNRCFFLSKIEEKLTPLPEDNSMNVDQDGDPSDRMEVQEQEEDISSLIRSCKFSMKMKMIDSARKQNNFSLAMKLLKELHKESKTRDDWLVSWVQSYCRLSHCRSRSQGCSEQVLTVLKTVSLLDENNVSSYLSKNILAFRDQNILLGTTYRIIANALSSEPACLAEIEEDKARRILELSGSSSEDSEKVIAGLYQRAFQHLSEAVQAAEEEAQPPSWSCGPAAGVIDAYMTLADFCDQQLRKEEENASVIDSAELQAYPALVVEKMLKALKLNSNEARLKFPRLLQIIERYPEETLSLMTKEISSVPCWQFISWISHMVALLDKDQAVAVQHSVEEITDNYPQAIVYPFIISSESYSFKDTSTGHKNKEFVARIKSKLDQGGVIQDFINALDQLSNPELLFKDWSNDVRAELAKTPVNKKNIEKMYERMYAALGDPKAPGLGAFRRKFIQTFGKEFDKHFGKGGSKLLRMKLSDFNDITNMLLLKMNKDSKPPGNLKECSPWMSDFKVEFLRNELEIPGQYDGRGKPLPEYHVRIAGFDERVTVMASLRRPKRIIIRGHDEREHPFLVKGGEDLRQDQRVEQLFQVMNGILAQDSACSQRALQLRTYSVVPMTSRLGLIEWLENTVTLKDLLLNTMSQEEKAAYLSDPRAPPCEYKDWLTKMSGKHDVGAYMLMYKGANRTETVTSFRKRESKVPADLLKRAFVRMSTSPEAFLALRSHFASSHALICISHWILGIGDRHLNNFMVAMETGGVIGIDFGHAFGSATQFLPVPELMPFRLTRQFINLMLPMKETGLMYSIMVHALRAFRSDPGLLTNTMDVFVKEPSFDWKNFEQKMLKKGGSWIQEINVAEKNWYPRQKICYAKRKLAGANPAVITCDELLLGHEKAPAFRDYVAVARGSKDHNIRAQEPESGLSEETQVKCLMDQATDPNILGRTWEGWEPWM
# experiment summary: biochemical
# Parameters: species or system HEK293/K-562/placenta mixed human extract; Kinobeads chemoproteomic competition binding, quantified by TMT LC-MS/MS, dose response up to 20 uM
pIC50: −log10 of the molar value.
experimental readout: pIC50

query: Please indicate pIC50 recorded for COc1nc(N[C@H]2CC[C@H](NS(=O)(=O)CC(C)C)CC2)nc2[nH]nc(N3CCOC[C@H]3C)c12
result: ≤ 4.70

----------
# assay target: MAP3K2 (Homo sapiens, UniProt Q9Y2U5)
# experiment summary: biochemical
# Set-up: species or system HEK293/K-562/placenta mixed human extract; Kinobeads chemoproteomic competition binding, quantified by TMT LC-MS/MS, dose response up to 20 uM
experimental readout: IC50

query: Kindly indicate its recorded IC50. Item: COc1nc(N[C@H]2CC[C@H](NS(=O)(=O)CC(C)C)CC2)nc2[nH]nc(N3CCOC[C@H]3C)c12
result: ≥ 20 µM

----------
# assay target: UniProt:Q6XUX3
# Sequence (Q6XUX3 whole entry): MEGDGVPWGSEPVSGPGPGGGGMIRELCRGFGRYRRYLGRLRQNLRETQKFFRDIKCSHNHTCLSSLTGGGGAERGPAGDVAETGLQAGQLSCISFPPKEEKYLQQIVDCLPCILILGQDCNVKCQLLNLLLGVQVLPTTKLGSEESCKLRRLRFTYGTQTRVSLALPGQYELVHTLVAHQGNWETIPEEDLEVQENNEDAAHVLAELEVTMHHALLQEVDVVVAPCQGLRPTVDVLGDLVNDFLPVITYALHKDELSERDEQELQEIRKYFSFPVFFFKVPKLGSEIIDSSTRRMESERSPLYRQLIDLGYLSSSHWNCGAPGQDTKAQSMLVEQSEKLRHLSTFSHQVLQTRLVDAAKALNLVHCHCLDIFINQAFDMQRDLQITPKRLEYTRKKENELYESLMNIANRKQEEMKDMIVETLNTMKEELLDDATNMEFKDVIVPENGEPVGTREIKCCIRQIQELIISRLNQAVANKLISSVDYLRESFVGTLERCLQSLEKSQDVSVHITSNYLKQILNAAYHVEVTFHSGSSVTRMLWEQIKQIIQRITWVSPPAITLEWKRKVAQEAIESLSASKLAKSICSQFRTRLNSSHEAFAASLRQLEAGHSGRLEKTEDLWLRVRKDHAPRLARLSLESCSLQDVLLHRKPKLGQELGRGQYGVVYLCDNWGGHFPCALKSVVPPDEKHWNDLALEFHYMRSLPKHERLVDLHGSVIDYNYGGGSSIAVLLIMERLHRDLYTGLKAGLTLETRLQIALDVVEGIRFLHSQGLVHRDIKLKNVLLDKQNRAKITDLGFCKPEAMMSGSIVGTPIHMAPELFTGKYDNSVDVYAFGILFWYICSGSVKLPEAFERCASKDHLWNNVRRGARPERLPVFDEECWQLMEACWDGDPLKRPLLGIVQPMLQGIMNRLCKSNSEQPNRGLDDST
# experiment summary: biochemical
# Design: species or system HEK293/K-562/placenta mixed human extract; Kinobeads chemoproteomic competition binding, quantified by TMT LC-MS/MS, dose response up to 20 uM
experimental readout: IC50

query: Report IC50 from UniProt:Q6XUX3 testing of COc1ccccc1-c1n[nH]c2nc(N[C@H]3CC[C@H](NS(=O)(=O)CCC(F)(F)F)CC3)nc(OC)c12 [compound 31]
result: ≥ 20 µM

----------
# assay target: CDK10 (Homo sapiens)
# experiment summary: biochemical
# Parameters: species or system HEK293/K-562/placenta mixed human extract; Kinobeads chemoproteomic competition binding, quantified by TMT LC-MS/MS, dose response up to 20 uM
experimental readout: IC50 (nM)
# value in nM; strip the unit string

query: Find the measured IC50 of COc1ccccc1-c1n[nH]c2nc(N[C@H]3CC[C@H](NS(=O)(=O)CCC(F)(F)F)CC3)nc(OC)c12 [compound 31] and report it.
result: 2600

----------
# assay target: UniProtKB P51812
# experiment summary: biochemical
# Design: species or system HEK293/K-562/placenta mixed human extract; Kinobeads chemoproteomic competition binding, quantified by TMT LC-MS/MS, dose response up to 20 uM
experimental readout: IC50

query: Identify the reported IC50 for the following entry. COc1nc(N[C@H]2CC[C@H](NS(=O)(=O)CC(C)C)CC2)nc2[nH]nc(N3CCOC[C@H]3C)c12 [compound 39]
result: ≥ 20 µM

Hello, the source for this data is paper PMC6407917, in case you need it.
